System: B6C3F1 mice, B16 melanoma ip, median survival T/C
Experiment: NCI In Vivo Anticancer Drug Screen. Data for tumor model B16 Melanoma (intraperitoneal) in B6C3F1 mice
Conditions: endpoint: median survival time; dose: 1.0 mg/kg/injection; schedule: Q01DX009 (ip); vehicle: saline
Toxic doses and inconclusive results are not listed. The calls were made as follows: active = survival T/C of 150% or more; inactive = T/C below 125% in these data.
Your reply should match one of these outcome classes. y (active), n (inactive)

Problem: Which result was noted for this molecule in the test: COc1cc(NC(N)=O)ccc1Nc1c2ccc(N)cc2nc2cc(N)ccc12
Result: n

Problem: Which result was noted for this molecule in the test: COc1cc2c(c(OC)c1OC)-c1ccc(OC)c(=O)cc1[C@@H](NC(C)=O)CC2
Result: y

Problem: Which result was noted for this molecule in the test: CCC1CC2CN(CCc3c([nH]c4ccccc34)C(C(=O)OC)(c3cc4c(cc3OC)N(C)C3C(O)(C(=O)OC)C(OC(C)=O)C5(CC)C=CCN6CCC43C65)C2)C1 (configuration not stated)
Result: y

Problem: Which result was noted for this molecule in the test: CC(C)CC1C(=O)OC(C(C)C)C(=O)N(C)C(CC(C)C)C(=O)OC(C(C)C)C(=O)N(C)C(CC(C)C)C(=O)OC(C(C)C)C(=O)N(C)C(CC(C)C)C(=O)OC(C(C)C)C(=O)N1C (configuration not stated)
Result: n

Problem: Which result was noted for this molecule in the test: CC1CN1P1(N2CC2C)=NP(N2CC2C)(N2CC2C)=NP(N2CC2C)(N2CC2C)=N1 (configuration not stated)
Result: n

Problem: Which result was noted for this molecule in the test: COc1cc([C@@H]2c3cc4c(cc3[C@@H](OC3OC5CO[C@@H](c6cccs6)OC5C(O)C3O)[C@H]3COC(=O)[C@H]23)OCO4)cc(OC)c1O (some centres not stated)
Result: n

Problem: Which result was noted for this molecule in the test: CSCS(=O)C[C@H](CO)NC(=O)/C=C/c1c(C)[nH]c(=O)[nH]c1=O (some centres not stated)
Result: n

====

System: B6C3F1 mice, B16 melanoma ip, median survival T/C
Assay: NCI In Vivo Anticancer Drug Screen. Data for tumor model B16 Melanoma (intraperitoneal) in B6C3F1 mice
Conditions: endpoint: median survival time; dose: 6.25 mg/kg/injection; schedule: Q01DX009 (ip); vehicle: saline; higher = longer survival
Toxic doses and inconclusive results are not listed.
attribute measured: T/C

Problem: Provide measured T/C value, entry: O=[Te]=O
Result: 109 % of control

Problem: Provide measured T/C value, entry: O=C(Nc1ccc(C2=NCCN2)cc1)c1ccc(C(=O)Nc2ccc(C3=NCCN3)cc2)c(Cl)c1
Result: 100 % of control

Problem: Provide measured T/C value, entry: CCOc1ccc(-c2nc3ccc(-c4nc5ccc(N6CCN(C)CC6)cc5[nH]4)cc3[nH]2)cc1
Result: 110 % of control

Problem: Provide measured T/C value, entry: CC1=C2C(=CO[C@H](C)[C@H]2C)C(=O)C(C(=O)O)=C1O
Result: 108 % of control

Problem: Provide measured T/C value, entry: Oc1ccccc1C=NCCC[N-]CCCN=Cc1ccccc1O.[Co]
Result: 101 % of control

Problem: Provide measured T/C value, entry: CCCCCCCCCCCCOCCCOP(=O)([O-])OCC[N+](C)(C)C
Result: 100 % of control

Problem: Provide measured T/C value, entry: CCN=C=NCCCN(C)C
Result: 109 % of control

Problem: Provide measured T/C value, entry: C[n+]1c(-c2cccc3ccccc23)c2cc(N)ccc2c2ccccc21
Result: 119 % of control

Problem: Provide measured T/C value, entry: [I][Hg][CH2]C1COC([CH2][Hg][I])CO1 (centres undefined)
Result: 101 % of control

Problem: Provide measured T/C value, entry: C=C(C)[C@H]1CN[C@H](C(=O)O)[C@H]1CC(=O)O
Result: 102 % of control

Problem: Provide measured T/C value, entry: CSC(SC)=C1C(=O)NC(=O)NC1=O
Result: 101 % of control

Problem: Provide measured T/C value, entry: CC1(C)COCN1COC1CCCCC1
Result: 99 % of control

Problem: Provide measured T/C value, entry: CC(=O)Nc1ccc(N=Nc2c(C)nn(C(=N)N)c2C)cc1
Result: 99 % of control

Problem: Provide measured T/C value, entry: Cc1ncc(O)c(CO)c1O
Result: 105 % of control
